- test: RP, Waters ACQUITY UPLC BEH C18, 100 × 1 mm, 1.7 µm, 50 °C, 0.3 mL/min, estimated dead time 0.17 min; A: water + 0.1% formic acid + 20 mM ammonium formate; B: methanol + 0.1% formic acid + 20 mM ammonium formate; gradient (min/%B) 0/0 15/100 21/100 22/0 30/0
- test_context: stereoisomer not certain
We use 10 min as the dividing line for LC retention time: on or above the line is criterion met, below is criterion not met.

Confirm if LC retention time reported for the compound CCCCN1CCCCC1C(=O)Nc1c(C)cccc1C (configuration not stated) is 10 min or above.
criterion met

Confirm if LC retention time reported for the compound CC(=O)OCC(=O)C1(O)C(C)CC2C3CCC4=CC(=O)C=CC4(C)C3(F)C(O)CC21C (configuration not stated) [Betamethasone-21-acetate] is 10 min or above.
criterion met

Confirm if LC retention time reported for the compound `CCCCOc1cc(C(=O)NCCN(CC)CC)c2ccccc2n1` is 10 min or above.
criterion met

Confirm if LC retention time reported for the compound CC1CN(C2CCCCCCCCCCC2)CC(C)O1 (configuration not stated) is 10 min or above.
criterion met

Confirm if LC retention time reported for the compound O=P1(N(CCCl)CCCl)NCCCO1 (configuration not stated) [Cyclophosphamide] is 10 min or above.
criterion met

Confirm if LC retention time reported for the compound `O=C1CCCC=CCCCCCCCCCC1` is 10 min or above.
criterion met

Confirm if LC retention time reported for the compound CCCCCCCCCC(=O)N(C)C [N,N-Dimethyldecan-1-amide] is 10 min or above.
criterion met

Confirm if LC retention time reported for the compound CCNC(=O)c1cccc(C)c1 [N-Ethyl-3-methylbenzamide] is 10 min or above.
criterion met

Confirm if LC retention time reported for the compound CCC1(O)C(=O)OCc2c1cc1n(c2=O)Cc2cc3ccccc3nc2-1 (configuration not stated) is 10 min or above.
criterion met

Confirm if LC retention time reported for the compound C=C1CC(=CC)C(=O)OC2CCN3CC=C(COC(=O)C1(C)O)C23 (configuration not stated) is 10 min or above.
criterion not met

Confirm if LC retention time reported for the compound `O=S(=O)(O)C(F)(F)F` is 10 min or above.
criterion not met

Confirm if LC retention time reported for the compound `CCCCOCN(C(=O)CS(=O)(=O)O)c1c(CC)cccc1CC` is 10 min or above.
criterion met

Confirm if LC retention time reported for the compound `Cc1cc(-n2nc3ccc(Cl)cc3n2)c(O)c(C(C)(C)C)c1` is 10 min or above.
criterion met

Confirm if LC retention time reported for the compound CC(O)C(NC(=O)Nc1ncnc2c1ncn2C1OC(CO)C(O)C1O)C(=O)O (configuration not stated) is 10 min or above.
criterion not met

Confirm if LC retention time reported for the compound Nc1nc(=O)n(C2CSC(CO)O2)cc1F (configuration not stated) is 10 min or above.
criterion not met

Confirm if LC retention time reported for the compound `Cc1ccc(N=CN(C)C=Nc2ccc(C)cc2C)c(C)c1` is 10 min or above.
criterion met

Confirm if LC retention time reported for the compound `c1ccc2c(c1)Nc1ccccc1S2` is 10 min or above.
criterion met

Confirm if LC retention time reported for the compound CCC1OC(=O)C(C)C(OC2CC(C)(OC)C(O)C(C)O2)C(C)C(OC2OC(C)CC(N(C)C)C2O)C(C)(O)CC(C)CN(C)C(C)C(O)C1(C)O (configuration not stated) is 10 min or above.
criterion met

Confirm if LC retention time reported for the compound CC12C=CC3=C4CCC(=O)C=C4CCC3C1CCC2O (configuration not stated) is 10 min or above.
criterion met

Confirm if LC retention time reported for the compound CCC1OC(=O)C(C)C(OC2CC(C)(OC)C(O)C(C)O2)C(C)C(OC2OC(C)CC(N(C)C)C2O)C(C)(O)CC(C)C(=O)C(C)C(O)C1(C)O (configuration not stated) is 10 min or above.
criterion met

Confirm if LC retention time reported for the compound CC(C)NCC(O)COc1ccc(CC(N)=O)cc1 (configuration not stated) is 10 min or above.
criterion not met

Confirm if LC retention time reported for the compound NS(=O)(=O)c1cc2c(cc1Cl)NC=NS2(=O)=O [Chlorthiazide] is 10 min or above.
criterion not met

Confirm if LC retention time reported for the compound Cc1cn(C2CC(N=[N+]=[N-])C(CO)O2)c(=O)[nH]c1=O (configuration not stated) is 10 min or above.
criterion not met

Confirm if LC retention time reported for the compound `Nc1c(Cl)cc(C(F)(F)F)cc1Cl` is 10 min or above.
criterion met

Confirm if LC retention time reported for the compound `CCc1cccc(C)c1N` is 10 min or above.
criterion met

Confirm if LC retention time reported for the compound `c1ccc2[nH]ncc2c1` is 10 min or above.
criterion not met

Confirm if LC retention time reported for the compound CC(C)(C)NC(=O)C1CCC2C3CCC4NC(=O)C=CC4(C)C3CCC12C (configuration not stated) [Finasteride] is 10 min or above.
criterion met

Confirm if LC retention time reported for the compound CC12CC3CC(C)(C1)CC(N)(C3)C2 [Memantine] is 10 min or above.
criterion met

Confirm if LC retention time reported for the compound `Cc1cc(C)c(C2=C(OC(=O)CC(C)(C)C)C3(CCCC3)OC2=O)c(C)c1` is 10 min or above.
criterion met

Confirm if LC retention time reported for the compound CCOP(=O)(O)OCC [Diethyl phopshate] is 10 min or above.
criterion met

Confirm if LC retention time reported for the compound `Clc1ccc2c(c1)CCc1cccnc1C2=C1CCNCC1` is 10 min or above.
criterion met

Confirm if LC retention time reported for the compound CCC1COC(Cn2cncn2)(c2ccc(Cl)cc2Cl)O1 (configuration not stated) is 10 min or above.
criterion met

Confirm if LC retention time reported for the compound `O=c1ccc2ccc(O)cc2o1` is 10 min or above.
criterion not met

Confirm if LC retention time reported for the compound `CCCCCCCCCCOC(=O)c1ccccc1C(=O)OCCCCCCCCCC` is 10 min or above.
criterion met

Confirm if LC retention time reported for the compound `COP(=S)(OC)SCn1nnc2ccccc2c1=O` is 10 min or above.
criterion met

Confirm if LC retention time reported for the compound CN1CCC23c4c5ccc(O)c4OC2C(O)C=CC3C1C5 (configuration not stated) is 10 min or above.
criterion not met

Confirm if LC retention time reported for the compound CNC(=O)Oc1cccc2c1OC(C)(C)C2O (configuration not stated) [3-Hydroxycarbofuran] is 10 min or above.
criterion not met

* * *

Hi there, I'd appreciate the recorded LC retention time for every entry that follows.
- test: RP, Waters ACQUITY UPLC BEH C18, 100 × 1 mm, 1.7 µm, 50 °C, 0.3 mL/min, estimated dead time 0.17 min; A: water + 0.1% formic acid + 20 mM ammonium formate; B: methanol + 0.1% formic acid + 20 mM ammonium formate; gradient (min/%B) 0/0 15/100 21/100 22/0 30/0
- test_context: stereoisomer not certain
Report the value in min with no unit label.

Can you look up the measured LC retention time of COc1ccc2c3c1OC1C(O)CCC4C(C2)N(C)CCC341 (stereo not given) [Dihydrocodein] for me?
6.74

Can you look up the measured LC retention time of CC12CCC3C(CCC4(O)CC(O)CCC34C=O)C1(O)CCC2C1=CC(=O)OC1 (stereo not given) [Strophanthidin] for me?
11

Can you look up the measured LC retention time of CC(=O)Nc1cc(Cl)ccc1C [5'-CHLORO-2'-METHYLACETANILIDE] for me?
11

Can you look up the measured LC retention time of O=S1(=O)CCCC1 [Sulfolane] for me?
2.73

Can you look up the measured LC retention time of CC(C)C1(C)N=C(c2ncccc2C(=O)O)NC1=O (stereo not given) [Imazapyr] for me?
8.89

Can you look up the measured LC retention time of Oc1ccc(Cl)cc1Cc1cc(Cl)ccc1O [Dichlorophen] for me?
15.2

Can you look up the measured LC retention time of C=C1C(=O)OC2C=C(C)CCC=C(C)CCC12 (single isomer, unassigned; (+)) [(+)-Costunolide] for me?
15

Can you look up the measured LC retention time of N#Cc1ccccc1Oc1cc(=O)[nH]cn1 [Azoxystrobin-metabolite] for me?
8.9

Can you look up the measured LC retention time of NCCc1ccc(OC2OC(C(=O)O)C(O)C(O)C2O)c(O)c1 (stereo not given) [dopamine_glucuronide] for me?
9.2

Can you look up the measured LC retention time of COc1cc(OC)nc(NC(=O)NS(=O)(=O)c2ncccc2C(F)(F)F)n1 [Flazasulfuron] for me?
13.4

Can you look up the measured LC retention time of CCOC(=O)c1ccc(N(C)C)cc1 [Ethyl-4-dimethylaminobenzoate] for me?
14.3

Can you look up the measured LC retention time of CC1(C)OC2CC3C4CCC5=CC(=O)C=CC5(C)C4C(O)CC3(C)C2(C(=O)CO)O1 (stereo not given) [Desonide] for me?
13.6

Can you look up the measured LC retention time of C=C1C(O)C2(O)OCC34C(CC5C(C)=CC(=O)C(O)C5(C)C23)OC(=O)CC14 (stereo not given) [Ailanthone] for me?
7.89

Can you look up the measured LC retention time of COc1ccc2c3c1OC1C(OC4OC(C(=O)O)C(O)C(O)C4O)C=CC4C(C2)N(C)CCC341 (stereo not given) [codeine-6-glucuronide] for me?
11.4

Can you look up the measured LC retention time of CC(C)(C)c1ccc(C(=O)CCCN2CCC(OC(c3ccccc3)c3ccccc3)CC2)cc1 [Ebastin] for me?
15.9

Can you look up the measured LC retention time of CC1C(C)(C)C2=C(C(=O)CCC2)C1(C)C (stereo not given) [Cashmeran] for me?
16.2

Can you look up the measured LC retention time of CCOC(=O)C(SP(=S)(OC)OC)c1ccccc1 (stereo not given) [Phenthoate] for me?
15.4

Can you look up the measured LC retention time of COC1CC(CC2CCC(C)C(C(C)C(=O)O)O2)OC2(OC(C)(C3CCC(C)(C4OC(C5OC(O)(CO)C(C)CC5C)CC4C)O3)CC2C)C1C (stereo not given) [Nigericin] for me?
18.8

Can you look up the measured LC retention time of Cc1cc(=O)oc2cc(N)ccc12 [7-Amino-4-methylcoumarin] for me?
9.29

Can you look up the measured LC retention time of COC(=O)c1ccccc1S(=O)(=O)NC(=O)Nc1nc(OC(F)F)cc(OC(F)F)n1 [Primisufuron-methyl] for me?
14.4

Can you look up the measured LC retention time of Nc1c(Cl)cccc1Cl [2,6-Dichloroaniline] for me?
17.6

Can you look up the measured LC retention time of CC(C)OC(=O)C(C)(C)Oc1ccc(C(=O)c2ccc(Cl)cc2)cc1 [Fenofibrate] for me?
17

Can you look up the measured LC retention time of O=C(O)c1cc(Br)c(O)c(Br)c1 [3,5-Dibromo-4-hydroxybenzoic acid] for me?
11.4

Can you look up the measured LC retention time of CCCCOC(=O)N(C)SN(C)C(=O)Oc1cccc2c1OC(C)(C)C2 [Furathiocarb] for me?
16.7

Can you look up the measured LC retention time of Cc1ccc(C=C2C(=O)C3(C)CCC2C3(C)C)cc1 (stereo not given) [4-Methylbenzylidene camphor] for me?
17.1

Can you look up the measured LC retention time of Cc1ccc(NC(=O)c2ccc(CN3CCN(C)CC3)cc2)cc1Nc1nccc(-c2cccnc2)n1 [Imatinib] for me?
11.2

Can you look up the measured LC retention time of CNC(=O)N(C)c1nc2ccccc2s1 [Methabenzthiazuron] for me?
12.7

Can you look up the measured LC retention time of O=C(O)CNC(=O)c1ccccc1 [Hippuric_acid] for me?
7.2

Can you look up the measured LC retention time of CCN(CC)c1ccc2c(C)cc(=O)oc2c1 [7-Diethylamino-4-methylcoumarin] for me?
14.4

Can you look up the measured LC retention time of CC(CN1c2ccccc2Sc2ccccc21)N(C)C (stereo not given) [Promethazin] for me?
12.5

Can you look up the measured LC retention time of CC1(C)SC2C(NC(=O)C(N)c3ccc(O)cc3)C(=O)N2C1C(=O)O (stereo not given) [Amoxicillin] for me?
5.66

Can you look up the measured LC retention time of Nc1nc2c(ncn2CCC(CO)CO)c(=O)[nH]1 [Penciclovir] for me?
3.58

Can you look up the measured LC retention time of CCc1cc(C)cc(CC)c1-c1c(OC(=O)C(C)(C)C)n2n(c1=O)CCOCC2 [Pinoxaden] for me?
10.5

Can you look up the measured LC retention time of CCC(C)OC(=O)N1CCCCC1CCO (stereo not given) [Icaridin] for me?
13.7

Can you look up the measured LC retention time of CCCCOCCOCCOCCOCCO [Tetraethyleneglycol monobutyl ether] for me?
11.7
